assay: Quantitative High-Throughput drug screen in 47 multiple myeloma cell lines against the NCATS MIPE library collection: KMS11_JCRBsus cell viability assay (AID 1919873); settings: KMS11 myeloma viability, CellTiter-Glo ATP luminescence, 48 h; series mostly up to 45.8 µM; note: nearly all actives have a fitted effect of over 50% in size; note: potency is the fitted concentration of half-maximal effect
Records with an inconclusive call do not appear. Calls of active or inactive are those of the source. Calls come from the whole dose curve; as a rule, active = well fitted cell-killing curve with a large enough effect; inconclusive = small, poorly fitted or top-dose-only effect, or effect the other way; inactive = no such curve, though single readings can be large or run the other way.
quantity.name: Potency

Record excerpt, results attached:
1) Cc1cc(-c2nnc3n2CCCCC3)c(C)n1-c1ccccc1    inactive
2) CCc1ccc(C(=O)Nc2cc(CN3CCN(C)CC3)cc(C(F)(F)F)c2)cc1C#Cc1cnc2ccnn2c1    4.69 µM (active)
3) CC[C@H](CC[C@@H](C)[C@H]1CC[C@H]2[C@@H]3CC=C4C[C@@H](O)CC[C@]4(C)[C@@H]3CC[C@]12C)C(C)C    inactive
4) C[C@H]1COc2c(N3CCN(C)CC3)c(F)cc3c(=O)c(C(=O)O)cn1c23    inactive
5) C=C(C)[C@@H]1CC[C@]2(C(=O)O)CC[C@]3(C)[C@H](CC[C@@H]4[C@@]5(C)CC[C@H](O)C(C)(C)[C@@H]5CC[C@]43C)[C@@H]12    inactive

[Q] # Potency lookup, item `COc1cc(C(=O)NC2CCN(C)CC2)ccc1Nc1ncc2c(n1)N(C1CCCC1)CCC(=O)N2C(C)C`
[A] 20.9 µM (active)

[Q] Requested read-out: Potency. Entry: `O=C(O)[C@H](CC(=O)N1C[C@@H]2CCCC[C@H]2C1)Cc1ccccc1`
[A] inactive

[Q] So what does the record say about Potency for `CCOC(=O)[C@@H](N)Cc1ccc(-c2cc(O[C@H](c3ccc(Cl)cc3-n3ccc(C)n3)C(F)(F)F)nc(N)n2)cc1` ?
[A] 16.6 µM (active)

These measurements were taken from PubChem BioAssay (NCATS).
